Molecular target: T1, CTLA4 (human, UniProt P16410 37-162, limits assumed)
T1 sequence (looked up): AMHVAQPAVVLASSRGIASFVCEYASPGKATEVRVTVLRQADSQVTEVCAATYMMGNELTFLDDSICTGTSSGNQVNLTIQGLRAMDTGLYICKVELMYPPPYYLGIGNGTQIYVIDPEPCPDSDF
Test: ELISA, coated protein 1 ug/mL; antibody concentration not stated
Parameter: OD450 nm. Scope: all listed entries.
Please state the value as a number alone, without comment.

Please review the entries below; each comes with its answer.
binder="chimeric anti-PD-1 antibody 21G8F11 (antibody, V domains shown, Purified from hybridoma of Harbour H2L2 mice: human variable regions, rat constant regions) VH: EVQLLESGGGLAQPGGSLRLSCAASGFSFNTYLMHWVRQAPGKGLEWVSAISGGGGNTYYADSVKGRFTISRDNSKNTLYLQMNSLRAEDTAVYYCAKENRIPVAPFDYWGQGTLVTVSS VL: DIQMTQSPSTLSASVGDRVTITCRASQSISTWLAWYQQKPGKAPKLLIYKASSLESGVPSRFSGSGSGTEFTLTISSLQPDDLATYYCQQYNSFSWTFGQGTKVEIK" value_type="OD450 nm" reading=0.091
binder="chimeric anti-PD-1 antibody 223G6B5 (antibody, V domains shown, Purified from hybridoma of Harbour H2L2 mice: human variable regions, rat constant regions) VH: QVQLQESGPGLVKPSETLSLTCAVSGHSIRGSYFWGWIRQPPGRGLEWIGSIYHSGSTYTNPSLKSRATISVDTSKNQFSLKLNSVTAADTAVYYCARDLDIATTRDYWGQGTLVTVSS VL: DIQLTQSPSFLSASVGDRVTIICRASQGINNYLAWYQQKPGKAPKLLIYAASTLQSGVPSRFSGSGSGTEFTLTISSLQPEDFATYYCQQLDSYPRTFGQGTKVEIKR" value_type="OD450 nm" reading=0.106
binder="chimeric anti-PD-1 antibody 76G5B3 (antibody, V domains shown, Purified from hybridoma of Harbour H2L2 mice: human variable regions, rat constant regions) VH: QVQLVESGGGVVQPGRSLRLSCAASGFTFSDYGFHWVRQAPGKGLEWVAVIWYDGSNEYYTDSVKGRFTISRDNSKNTLYLQMNSLRAEDTAMYFCVVNPFDYWGQGTLVTVSS VL: DIQMTQSPSSLSAFVGDRVTITCRASQGINHYLAWYQQKPGKAPNLLILAASTLLSGVPSRFGGRGSGTDFTLIISSLQPEDVATYYCQKYDSAPYTFGQGTKLEIK" value_type="OD450 nm" reading=0.135

**Q:** Item chimeric anti-PD-1 antibody 32B5C7 (antibody, V domains shown, Purified from hybridoma of Harbour H2L2 mice: human variable regions, rat constant regions) VH: EVQLLESGGGLVQPGGSLRLSCAASGFTFSSYAMSWVRQAPGKGLEWVSTISGSGGTTYYADSVKGRFTISRDNSKNTLYLQMNSLRAEDTAVYYCTLTGDPDYWGQGTLVTVSS VL: EIVLTQSPATLSLSPGERATLSCRASQSVSSYLAWYQQKPGQAPRLLIYDASKRATGIPARFSGSGSGTDFTLTISSLEPEDFAVYYCQQRNNWPLTFGGGTKVEIK : provide OD450 nm
**A:** 0.172

Every entry's value here was drawn from patent US20180214548A1.
